The measured values listed here are drawn from paper PMC5404532.

System: P. falciparum 7G8 (CQR)
Assay: Inhibition of P. falciparum growth, CQR 7G8 (SYBR green I fluorescence)
Format: cell-based, Plasmodium falciparum
Details: Plasmodium falciparum, 7G8, 72 h, read-out: IC50 (nM) for P. falciparum 7G8, CQR 7G8; 72 h; averages from at least 3 runs; normalized to CQ 108 nM; uncertainty ±15%
endpoint_label: IC50

INSERT INTO assay_data (molecule, endpoint_label, result) VALUES
  ('CCN(CC)CCCC(C)Nc1ccnc2cc(Cl)ccc12 (stereo not shown)', 'IC50', '106 nM');

---

Tested on: P. falciparum 7G8 (CQR)
Experiment: Inhibition of P. falciparum growth, CQR 7G8 (SYBR green I fluorescence)
Assay type: cell-based, Plasmodium falciparum
Conditions: read-out: IC50 (nM) for P. falciparum 7G8; CQR 7G8; 72 h; averages from at least 3 runs; normalized to CQ 108 nM; uncertainty ±15%
endpoint_label: IC50 (nM)

INSERT INTO assay_data (molecule, endpoint_label, readout_unit, readout_number) VALUES
  ('CCN(CC)CCCC(C)Nc1ccnc2cc(Cl)ccc12 (stereo not shown)', 'IC50', 'nM', 108);

---

System: mouse spleen lymphocytes
Experiment: Cytotoxicity against mouse spleen lymphocytes
Type: cell-based
Settings: estimated ±50%
# key: entry, value: Cytotoxicity
endpoint_label: Cytotoxicity

INSERT INTO assay_data (molecular_string, assayed_system, result) VALUES
  ('Clc1ccc2c(NCCCN3CCN(c4ccccn4)CC3)ccnc2c1', 'mouse spleen lymphocytes', '13,300 nM'),
  ('Clc1ccc2c(NCCCN3CCN(c4ccccc4)CC3)ccnc2c1', 'mouse spleen lymphocytes', '6,400 nM'),
  ('Clc1ccc2c(NCCCN3CCN(c4cccc(-c5ccccc5)c4)CC3)ccnc2c1', 'mouse spleen lymphocytes', '2,100 nM'),
  ('Clc1ccc2c(NCCCN3CCN(c4ncccn4)CC3)ccnc2c1', 'mouse spleen lymphocytes', '28,000 nM'),
  ('Clc1ccc2c(NCCCN3CCN(c4ccc(-c5ccccc5)cc4)CC3)ccnc2c1', 'mouse spleen lymphocytes', '2,200 nM'),
  ('Clc1ccc2c(NCCCN3CCN(c4ccccc4-c4ccccc4)CC3)ccnc2c1', 'mouse spleen lymphocytes', '1,700 nM');

---

Tested on: P. falciparum Dd2 (CQR)
Experiment: Inhibition of P. falciparum growth, CQR Dd2 (SYBR green I fluorescence)
Format: cell-based
Conditions: Plasmodium falciparum, DD2, 72 h, read-out: IC50 (nM) for P. falciparum Dd2
endpoint_label: IC50 (nM)

INSERT INTO assay_data (compound, readout_unit, readout_number) VALUES
  ('CCN(CC)CCCC(C)Nc1ccnc2cc(Cl)ccc12 (stereo not shown)', 'nM', 102);
